Measured ELISA (absorbance units) (absorbance units), listed per entry.
studySystem: bovine serum albumin (bovine) (UniProt P02769)
Sequence (P02769 25-607 limits assumed): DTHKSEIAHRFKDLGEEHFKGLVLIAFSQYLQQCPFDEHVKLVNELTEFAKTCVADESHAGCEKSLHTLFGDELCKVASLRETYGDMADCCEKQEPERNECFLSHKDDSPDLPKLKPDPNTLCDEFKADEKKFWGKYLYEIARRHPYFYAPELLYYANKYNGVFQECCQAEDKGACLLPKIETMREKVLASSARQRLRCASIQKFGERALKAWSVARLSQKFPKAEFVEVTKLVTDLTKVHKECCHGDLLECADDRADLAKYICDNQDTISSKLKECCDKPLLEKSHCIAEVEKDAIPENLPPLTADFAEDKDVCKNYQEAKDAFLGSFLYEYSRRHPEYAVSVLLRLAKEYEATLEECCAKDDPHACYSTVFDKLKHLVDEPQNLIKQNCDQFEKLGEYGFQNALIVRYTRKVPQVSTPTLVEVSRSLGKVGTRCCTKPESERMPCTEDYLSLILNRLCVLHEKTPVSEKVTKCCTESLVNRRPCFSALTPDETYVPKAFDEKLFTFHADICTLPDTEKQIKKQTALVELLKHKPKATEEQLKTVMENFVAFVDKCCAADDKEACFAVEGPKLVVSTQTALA
experimentSummary: phage ELISA, 10^10 phagemid per well, BSA-only wells
Positions of bridges follow the written chain, without caps; N, C: chain ends. No end group written: not given here.
When you answer, write just the number.

CSFFYSLCYCWCS (disulfide (positions not given here); also: disulfide cyclised, pairing of the four Cys not given here) [phagemid CS1-31p] : 0.112
CSFRYQWDMFRCS (disulfide 1-12 (inferred)) [phagemid CS1-11p] : 0.304
CSGLYPWDMFRCS (disulfide 1-12 (inferred)) [phagemid CS1-9p] : 0.221
CSFRYLWDQDRCS (disulfide 1-12 (inferred)) [phagemid CS1-6p] : 0.275
CSGLYPWDYFMCS (disulfide 1-12 (inferred)) [phagemid CS1-29p] : 0.141

Look up ELISA (absorbance units) (absorbance units): CSLFYLWDQDRCS (disulfide 1-12 (inferred)) [phagemid CS1-2p]
0.327
